# Lookup of reported inhibition keyed by entry
# Tested on: Platelet-derived growth factor receptor alpha (Homo sapiens), P16234 [D842V]
# Sequence (P16234 whole entry D842V): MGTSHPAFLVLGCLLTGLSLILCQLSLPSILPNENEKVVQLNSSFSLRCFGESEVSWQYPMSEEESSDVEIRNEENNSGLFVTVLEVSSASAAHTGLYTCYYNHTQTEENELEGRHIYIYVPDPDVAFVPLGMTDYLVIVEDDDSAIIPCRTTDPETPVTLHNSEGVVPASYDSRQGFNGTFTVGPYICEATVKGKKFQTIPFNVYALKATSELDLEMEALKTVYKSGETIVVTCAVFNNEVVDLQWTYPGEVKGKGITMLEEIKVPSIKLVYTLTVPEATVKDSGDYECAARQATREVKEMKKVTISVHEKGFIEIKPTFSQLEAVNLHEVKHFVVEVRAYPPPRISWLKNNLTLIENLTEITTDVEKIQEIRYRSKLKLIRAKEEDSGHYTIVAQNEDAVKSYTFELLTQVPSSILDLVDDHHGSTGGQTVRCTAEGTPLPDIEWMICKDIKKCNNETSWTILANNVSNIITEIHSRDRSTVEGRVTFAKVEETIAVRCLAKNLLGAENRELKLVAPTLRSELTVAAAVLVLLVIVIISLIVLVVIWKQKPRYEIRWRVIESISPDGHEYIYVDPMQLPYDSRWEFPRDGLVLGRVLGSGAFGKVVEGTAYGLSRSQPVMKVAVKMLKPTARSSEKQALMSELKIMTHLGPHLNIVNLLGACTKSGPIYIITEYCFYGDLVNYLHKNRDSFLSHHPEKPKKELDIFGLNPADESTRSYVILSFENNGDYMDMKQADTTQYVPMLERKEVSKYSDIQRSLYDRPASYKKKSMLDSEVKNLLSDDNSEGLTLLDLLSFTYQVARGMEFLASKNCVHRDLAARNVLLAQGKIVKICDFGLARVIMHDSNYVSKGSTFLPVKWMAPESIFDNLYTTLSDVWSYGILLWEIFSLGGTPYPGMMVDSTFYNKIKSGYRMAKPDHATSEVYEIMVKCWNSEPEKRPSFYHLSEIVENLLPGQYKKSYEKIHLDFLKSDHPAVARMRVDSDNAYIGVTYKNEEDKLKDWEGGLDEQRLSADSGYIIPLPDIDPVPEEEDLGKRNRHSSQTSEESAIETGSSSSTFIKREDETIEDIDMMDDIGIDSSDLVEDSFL
# applied conditions: at 0.1 µM
observable: inhibition (%)

{"molecule": "O=C(Nc1ccc(Oc2ccc3[nH]c(NC(=O)c4ccccc4)nc3c2)cc1)Nc1cc(C(F)(F)F)ccc1F", "units symbol": "%", "numeric readout": 1.94}
{"molecule": "CS(=O)(=O)CCNCc1cc(-c2cc3c(Nc4ccc(OCc5cccc(F)c5)c(Cl)c4)ncnc3s2)cs1", "units symbol": "%", "numeric readout": 2.14}
{"molecule": "COc1ccc(C2=C(N3CCc4ccccc43)C(=O)NC2=O)cc1", "units symbol": "%", "numeric readout": 5.15}
{"molecule": "COc1cc(Nc2ncc(-c3ccccc3)o2)cc(OC)c1OC", "units symbol": "%", "numeric readout": 9.16}
{"molecule": "O=C1NC(=O)C(c2cccc(Cl)c2)=C1Nc1ccc(Cl)c(C(=O)O)c1", "units symbol": "%", "numeric readout": 0.72}
{"molecule": "CCc1ccc(Oc2nccc(-c3c(-c4ccc(F)cc4)ncn3C3CCNCC3)n2)cc1", "units symbol": "%", "numeric readout": 1.14}
{"molecule": "Fc1ccc(-c2ncn(C3CCNCC3)c2-c2ccnc(Oc3ccc(F)c(F)c3)n2)cc1", "units symbol": "%", "numeric readout": 2.91}
{"molecule": "NC(=O)Cc1ccccc1Oc1nccc(-c2c(-c3ccc(F)cc3)ncn2C2CCNCC2)n1", "units symbol": "%", "numeric readout": 0.37}
{"molecule": "Cc1ccc(NC(=O)c2ccoc2)cc1-c1ccc(C(=O)NCC2CC2)cc1", "units symbol": "%", "numeric readout": 0.3}
{"molecule": "CCC(=O)Nc1ccc(C)c(-c2ccc(C(=O)NCC3CC3)cc2)c1", "units symbol": "%", "numeric readout": 2.61}
{"molecule": "CN1CCN(CCCNc2nc3ccc(Oc4ccc(NC(=O)Nc5cc(C(F)(F)F)ccc5F)cc4)cc3[nH]2)CC1", "units symbol": "%", "numeric readout": 2.11}
{"molecule": "CNC(=O)c1cncc(/C=C/c2c(C)cccc2C)c1", "units symbol": "%", "numeric readout": 0.09}
{"molecule": "NC(=O)c1cc(-c2ccncc2)cc(-c2ccccc2)c1N", "units symbol": "%", "numeric readout": 3.01}
{"molecule": "Clc1ccc(CNc2nccc(-c3cnn4ncccc34)n2)cc1", "units symbol": "%", "numeric readout": 0.87}
{"molecule": "C/C(Nc1ccc(S(N)(=O)=O)cc1)=C1/C(=O)Nc2ccccc21", "units symbol": "%", "numeric readout": 4.56}
{"molecule": "FC(F)(F)c1cccc(Nc2nccc(-c3cnn4nc(-c5ccccc5)ccc34)n2)c1", "units symbol": "%", "numeric readout": 4.44}
{"molecule": "C[C@@H](Oc1cc(-n2cnc3ccc(OCC4CCN(C)CC4)cc32)sc1C(N)=O)c1ccccc1Cl", "units symbol": "%", "numeric readout": 10.9}
{"molecule": "COc1ccc2cc(-c3c(-c4ccncc4)nc(-c4ccc([S+](C)[O-])cc4C)n3C)ccc2c1 (stereo unspecified)", "units symbol": "%", "numeric readout": -0.45}
{"molecule": "CN(C)c1ccc2c(c1)/C(=C/Nc1ccc(S(N)(=O)=O)cc1)C(=O)N2", "units symbol": "%", "numeric readout": 14.4}
{"molecule": "Fc1ccc(-c2nc3n(c2-c2ccncc2)CCS3)cc1", "units symbol": "%", "numeric readout": 4.17}
{"molecule": "COc1cc2ncn(-c3cc(OCCc4ccccc4)c(C(N)=O)s3)c2cc1OC", "units symbol": "%", "numeric readout": 8.08}

----------
# tested on: Death-associated protein kinase 1 (Homo sapiens);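 further: reported figure is the mean inhibition of DAPK1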
# applied conditions: at 0.1 µM

{"smiles record": "COc1ccc(C2=C(N3CCc4ccccc43)C(=O)NC2=O)cc1", "units symbol": "%", "inhibition": 3.58}
{"smiles record": "O=C(Nc1n[nH]c2cc(-c3cc(F)ccc3F)ccc12)C1CC1", "units symbol": "%", "inhibition": -0.82}
{"smiles record": "c1ccc(-c2n[nH]cc2-c2ccnc(-c3ccc(OCCN4CCOCC4)cc3)c2)nc1", "units symbol": "%", "inhibition": 1}
{"smiles record": "COc1ccc(-c2ccc3c(NC(=O)C4CC4)n[nH]c3n2)cc1", "units symbol": "%", "inhibition": 2.58}
{"smiles record": "CCS(=O)(=O)c1ccc(OC)c(Nc2ncc(-c3cccc(-c4ccccc4F)c3)o2)c1", "units symbol": "%", "inhibition": -0.16}
{"smiles record": "CCN(CC)Cc1ccc(Nc2nccc(-c3cnn4ncccc34)n2)cc1", "units symbol": "%", "inhibition": 2.68}
{"smiles record": "COC(=O)Nc1nc2ccc(Sc3ccc(NC(=O)Nc4cc(C(F)(F)F)ccc4F)cc3)cc2[nH]1", "units symbol": "%", "inhibition": 3.64}
{"smiles record": "Cc1ccc(C(=O)NC2CCC2)cc1-c1ccc(C(=O)NCC2CC2)cc1", "units symbol": "%", "inhibition": 2.9}
{"smiles record": "c1ccc(Oc2ccc(Nc3ncc(-c4ccccc4)o3)cc2)cc1", "units symbol": "%", "inhibition": 0.04}
{"smiles record": "CCc1nccc2c1nc(-c1nonc1N)n2CC", "units symbol": "%", "inhibition": 0.87}

----------
# Lookup of reported inhibition keyed by entry
# tested on: Tyrosine-protein kinase Lyn (Homo sapiens);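 further: mean inhibition of the LYN B splice variant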
# applied conditions: at 0.1 µM
# Description: GSK_PKIS: LYN B (splice variant) mean inhibition at 0.1 uM [Nanosyn]

{"smiles record": "CCc1cccc(CC)c1/C=C/c1cncc(C(=O)NC)c1", "inhibition (%)": 1.75}
{"smiles record": "COC(=O)Nc1nc2ccc(Sc3ccc(NC(=O)Nc4cc(C(F)(F)F)ccc4F)cc3)cc2[nH]1", "inhibition (%)": 4.04}
{"smiles record": "Fc1ccc(-c2nc3n(c2-c2ccncc2)CCS3)cc1", "inhibition (%)": 1.97}
{"smiles record": "O=C(Nc1n[nH]c2nc(-c3ccco3)ccc12)C1CC1", "inhibition (%)": 1.47}
{"smiles record": "O=C1NC(=O)C(c2cccc(Cl)c2)=C1Nc1ccc(Cl)c(C(=O)O)c1", "inhibition (%)": 2.44}
{"smiles record": "O=C1Nc2ccccc2/C1=C/Nc1ccc(-n2cncn2)cc1", "inhibition (%)": 4.42}
{"smiles record": "COc1cc2ncn(-c3cc(OCc4ccccc4C(F)(F)F)c(C(C)=O)s3)c2cc1OC", "inhibition (%)": 4.22}
{"smiles record": "Cc1ccc(C(=O)NC(C)C)cc1-c1ccc(C(=O)NCC2CC2)cc1", "inhibition (%)": -1.84}
{"smiles record": "O=C(Nc1n[nH]c2nc(-c3ccc(O)cc3)c(Br)cc12)C1CC1", "inhibition (%)": 6.94}
{"smiles record": "CN(C)CCCNc1nccc(-c2c(-c3ccc(F)cc3)nn3cc(C(F)(F)F)ccc23)n1", "inhibition (%)": 0.99}
{"smiles record": "CCc1ccc(Oc2nccc(-c3c(-c4ccc(F)cc4)ncn3C3CCNCC3)n2)cc1", "inhibition (%)": 1.59}
{"smiles record": "CCc1nccc2c1nc(-c1nonc1N)n2CC", "inhibition (%)": 1.19}

----------
# Lookup of reported inhibition keyed by entry
# tested on: Maternal embryonic leucine zipper kinase (Homo sapiens) (UniProt Q14680);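 further: each value is the mean inhibition of MELK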
# Sequence (Q14680 whole entry, looked up): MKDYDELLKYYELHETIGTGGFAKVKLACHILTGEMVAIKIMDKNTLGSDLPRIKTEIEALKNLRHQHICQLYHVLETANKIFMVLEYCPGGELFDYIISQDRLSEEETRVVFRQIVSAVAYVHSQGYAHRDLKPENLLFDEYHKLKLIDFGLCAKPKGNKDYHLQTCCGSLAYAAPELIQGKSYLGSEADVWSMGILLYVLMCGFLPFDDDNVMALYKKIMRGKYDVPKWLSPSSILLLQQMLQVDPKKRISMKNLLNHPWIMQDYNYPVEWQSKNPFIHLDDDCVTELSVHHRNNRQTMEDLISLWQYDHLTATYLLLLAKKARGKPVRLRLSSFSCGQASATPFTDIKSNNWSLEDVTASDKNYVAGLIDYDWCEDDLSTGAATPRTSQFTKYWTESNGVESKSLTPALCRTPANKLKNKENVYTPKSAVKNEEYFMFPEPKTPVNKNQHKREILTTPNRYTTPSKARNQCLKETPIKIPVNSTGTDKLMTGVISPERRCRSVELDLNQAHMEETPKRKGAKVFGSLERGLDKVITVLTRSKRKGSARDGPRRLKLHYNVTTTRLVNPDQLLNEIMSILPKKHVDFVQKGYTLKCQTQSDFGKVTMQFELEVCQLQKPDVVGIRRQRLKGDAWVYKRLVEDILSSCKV
# applied conditions: at 1 µM

{"compound": "Cc1ccc(NC(=O)c2ccoc2)cc1-c1ccc(C(=O)NCC2CC2)cc1", "tested on": "Maternal embryonic leucine zipper kinase (Homo sapiens) (UniProt Q14680)", "inhibition": "-0.33%"}
{"compound": "NC(=O)c1ccc(Oc2nccc(-c3c(-c4ccc(F)cc4)ncn3C3CCNCC3)n2)cc1", "tested on": "Maternal embryonic leucine zipper kinase (Homo sapiens) (UniProt Q14680)", "inhibition": "11.6%"}
{"compound": "NC(=O)c1cc(-c2ccncc2)cc(-c2ccccc2)c1N", "tested on": "Maternal embryonic leucine zipper kinase (Homo sapiens) (UniProt Q14680)", "inhibition": "7.85%"}
{"compound": "COc1cc2ncn(-c3cc(OCc4cccs4)c(C(N)=O)s3)c2cc1OC", "tested on": "Maternal embryonic leucine zipper kinase (Homo sapiens) (UniProt Q14680)", "inhibition": "4.91%"}
{"compound": "CCc1ccc(Oc2nccc(-c3c(-c4ccc(F)cc4)ncn3C3CCNCC3)n2)cc1", "tested on": "Maternal embryonic leucine zipper kinase (Homo sapiens) (UniProt Q14680)", "inhibition": "5.64%"}
{"compound": "CN(C)CCCNc1nccc(-c2c(-c3ccc(F)cc3)nn3cc(C(F)(F)F)ccc23)n1", "tested on": "Maternal embryonic leucine zipper kinase (Homo sapiens) (UniProt Q14680)", "inhibition": "2.95%"}
{"compound": "CCc1nccc2c1nc(-c1nonc1N)n2CC", "tested on": "Maternal embryonic leucine zipper kinase (Homo sapiens) (UniProt Q14680)", "inhibition": "0.69%"}
{"compound": "COc1ccc2cc(-c3c(-c4ccncc4)nc(-c4ccc([S+](C)[O-])cc4C)n3C)ccc2c1 (stereo not given)", "tested on": "Maternal embryonic leucine zipper kinase (Homo sapiens) (UniProt Q14680)", "inhibition": "0.51%"}
{"compound": "O=C(Nc1n[nH]c2cc(-c3ccccc3)ccc12)C1CC1", "tested on": "Maternal embryonic leucine zipper kinase (Homo sapiens) (UniProt Q14680)", "inhibition": "3.69%"}
{"compound": "Fc1ccc(-c2c(-c3ccncc3)nc3n2CCS3)cc1", "tested on": "Maternal embryonic leucine zipper kinase (Homo sapiens) (UniProt Q14680)", "inhibition": "7.4%"}
